Where do these numbers come from? They come from ChEMBL document CHEMBL3286390.

assay: Tmax in BALB/c mouse at 50 mg/kg, po administered as single dose; type: ADME, organism-based; set-up: dose 50 mg/kg, route oral; settings: in vivo
experimental_endpoint: Tmax (min)
Give the value, in units of min, as a plain number.

So for `COc1ncnc(Cn2cc(C(=O)NCCO)c3ncc(C)cc32)c1C` , the logged Tmax turned out to be 15

====

assay: Half life in BALB/c mouse at 30 mg/kg, po administered as single dose; assay type: ADME, organism-based; design: dose 30 mg/kg, route oral; details: in vivo
experimental_endpoint: half-life (min)
Give the value, in units of min, as a plain number.

So for `COc1ncnc(Cn2cc(C(=O)NCCF)c3ncc(C)cc32)c1C` , the logged half-life turned out to be 30

====

Assignment: determine reported bioavailability for the given molecules.
experiment: Oral bioavailability in rat; format: ADME, organism-based; settings: in vivo
Give the value, in units of %, as a plain number.

So for `COc1cnc2c(C(=O)NCCO)cn(Cc3ncnc(OC)c3C)c2c1` , the logged bioavailability turned out to be 100

So for `COc1ncnc(Cn2cc(C(=O)NCCF)c3ncc(C)cc32)c1C` , the logged bioavailability turned out to be 80

So for `Cc1cnc2c(C(=O)NCCO)cn(Cc3ncnc(N(C)C)c3C)c2c1` , the logged bioavailability turned out to be 87

So for `COc1cnc2c(C(=O)NCCO)cn(Cc3ncnc(N(C)C)c3C)c2c1` , the logged bioavailability turned out to be 87

So for `Cc1cnc2c(C(=O)NCCO)cn(Cc3ncnc(OC(F)F)c3C)c2c1` , the logged bioavailability turned out to be 64

So for `COc1ncnc(Cn2cc(C(=O)NCCO)c3ncc(C)cc32)c1C` , the logged bioavailability turned out to be 100

====

test system: Mycobacterium tuberculosis; type: functional, H37Rv ATCC 27294, THP-1; settings: Mycobacterium tuberculosis, H37Rv ATCC 27294; read-out: MIC
experimental_endpoint: MIC

Reading of MIC for `COc1cnc2c(C(=O)NCCF)cn(Cc3ncnc(OC)c3C)c2c1` with Mycobacterium tuberculosis: < 0.39 µM

Reading of MIC for `COc1cnc2c(C(=O)NCCO)cn(Cc3ncnc(OC)c3C)c2c1` with Mycobacterium tuberculosis: 0.78 µM

Reading of MIC for `COc1cnc2c(C(=O)NCCF)cn(Cc3ncnc(N(C)C)c3C)c2c1` with Mycobacterium tuberculosis: < 0.39 µM

Reading of MIC for `COc1cnc2c(C(=O)NCCO)cn(Cc3ncnc(OC(F)F)c3C)c2c1` with Mycobacterium tuberculosis: 0.78 µM

Reading of MIC for `COc1ncnc(Cn2cc(C(=O)NCCF)c3ncc(Br)cc32)c1C` with Mycobacterium tuberculosis: 1.56 µM

Reading of MIC for `Cc1cnc2c(C(=O)NCC(F)F)cn(Cc3ncc(C)nc3C)c2c1` with Mycobacterium tuberculosis: < 0.39 µM

Reading of MIC for `COc1cnc2c(C(=O)NCC(F)F)cn(Cc3ncnc(OC(F)F)c3C)c2c1` with Mycobacterium tuberculosis: < 0.39 µM

Reading of MIC for `COc1ncnc(Cn2cc(-c3cnn(C(F)F)c3)c3ncc(C)cc32)c1C` with Mycobacterium tuberculosis: < 0.39 µM

Reading of MIC for `COc1cnc2c(C(=O)NCCF)cn(Cc3ncnc(OC(F)F)c3C)c2c1` with Mycobacterium tuberculosis: < 0.39 µM

Reading of MIC for `COc1ncnc(Cn2cc(C(=O)NCCF)c3ncc(C)cc32)c1C` with Mycobacterium tuberculosis: < 0.39 µM

Reading of MIC for `Cc1cnc2c(C(=O)NCCO)cn(Cc3ncnc(N(C)C)c3C)c2c1` with Mycobacterium tuberculosis: < 0.39 µM

Reading of MIC for `COc1ncnc(Cn2cc(C(=O)NCCF)c3ncc(C(F)(F)F)cc32)c1C` with Mycobacterium tuberculosis: > 200 µM

Reading of MIC for `COc1ncnc(Cn2cc(C(=O)NCCF)c3ncc(F)cc32)c1C` with Mycobacterium tuberculosis: 6.25 µM

Reading of MIC for `COc1cnc2c(C(=O)NCC(F)F)cn(Cc3ncnc(N(C)C)c3C)c2c1` with Mycobacterium tuberculosis: < 0.39 µM

Reading of MIC for `COc1cnc2c(C(=O)NCCO)cn(Cc3ncnc(N(C)C)c3C)c2c1` with Mycobacterium tuberculosis: < 0.39 µM

Reading of MIC for `Cc1cnc2c(C(=O)NCCO)cn(Cc3ncnc(OC(F)F)c3C)c2c1` with Mycobacterium tuberculosis: < 0.39 µM

Reading of MIC for `COc1ccc2c(n1)c(C(=O)NCC1CC1)cn2Cc1ccc(C)cc1C` with Mycobacterium tuberculosis: > 100 µM

Reading of MIC for `COc1ncnc(Cn2cc(C(=O)NCC(F)F)c3ncc(C)cc32)c1C` with Mycobacterium tuberculosis: < 0.39 µM

Reading of MIC for `COc1ccc(F)cc1Cn1cc(C(=O)NCC2CC2)c2nccc(C)c21` with Mycobacterium tuberculosis: 6.25 µM

Reading of MIC for `COc1ncc(C(F)(F)F)cc1Cn1cc(C(=O)NCCO)c2ncc(C)cc21` with Mycobacterium tuberculosis: 1.56 µM
